Sourced from ChEMBL document CHEMBL5365540

ASSAY_DETAILS: Half-life in human serum by LC-SWATH-MS analysis
Assay type: ADME, cell-free
Where a SMILES comes first, the peptide text is derived from it.
MEASURED_QUANTITY: half-life

// worked examples, half-life included
# COMPOUND, half-life
rows = [
    ("N=C(N)NCCCC[C@H](NC(=O)[C@@H](N)CS)C(=O)NCCCC[C@H](N)C(=O)N[C@@H](CCN)C(=O)N1C2CCCCC2C[C@H]1C(=O)N[C@@H](CCCNC(=N)N)C(=O)O (stereo partly drawn) (HELM PEPTIDE1{K.[Dab].[O=C([C@@H]1CC2CCCCC2N1[*:1])[*:2]].R}|PEPTIDE2{C.[N=C(N)NCCCC[C@H](N[*:1])C(=O)[*:2]]}$PEPTIDE1,PEPTIDE2,1:R3-2:R2$$$V2.0)", "< 480 min"),
    ("N=C(N)NCCCC[C@H](N)C(=O)NCCCC[C@H](NC(=O)[C@@H](N)CS)C(=O)N[C@@H](CCN)C(=O)N1C2CCCCC2C[C@H]1C(=O)N[C@@H](CCCNC(=N)N)C(=O)O (stereo partly drawn) (HELM PEPTIDE1{C.K.[Dab].[O=C([C@@H]1CC2CCCCC2N1[*:1])[*:2]].R}|PEPTIDE2{[N=C(N)NCCCC[C@H](N)C(=O)[*:2]]}$PEPTIDE1,PEPTIDE2,2:R3-1:R2$$$V2.0)", "~480 min"),
]

We now examine a further compound.
**Query** Item CC[C@H](N)C(=O)N[C@@H](CCCCNC(=O)[C@@H](N)CCCCNC(=N)N)C(=O)N[C@@H](CCN)C(=O)N1C2CCCCC2C[C@H]1C(=O)N[C@@H](CCCNC(=N)N)C(=O)O (stereo partly drawn) (HELM PEPTIDE1{[Abu].K.[Dab].[O=C([C@@H]1CC2CCCCC2N1[*:1])[*:2]].R}|PEPTIDE2{[N=C(N)NCCCC[C@H](N)C(=O)[*:2]]}$PEPTIDE1,PEPTIDE2,2:R3-1:R2$$$V2.0) : provide half-life
**Result** 120 min
